Target: T1, chick N-cadherin expressed on transfected 3T3 cells (chick, UniProt P10288 165-912)
T1 sequence (looked up): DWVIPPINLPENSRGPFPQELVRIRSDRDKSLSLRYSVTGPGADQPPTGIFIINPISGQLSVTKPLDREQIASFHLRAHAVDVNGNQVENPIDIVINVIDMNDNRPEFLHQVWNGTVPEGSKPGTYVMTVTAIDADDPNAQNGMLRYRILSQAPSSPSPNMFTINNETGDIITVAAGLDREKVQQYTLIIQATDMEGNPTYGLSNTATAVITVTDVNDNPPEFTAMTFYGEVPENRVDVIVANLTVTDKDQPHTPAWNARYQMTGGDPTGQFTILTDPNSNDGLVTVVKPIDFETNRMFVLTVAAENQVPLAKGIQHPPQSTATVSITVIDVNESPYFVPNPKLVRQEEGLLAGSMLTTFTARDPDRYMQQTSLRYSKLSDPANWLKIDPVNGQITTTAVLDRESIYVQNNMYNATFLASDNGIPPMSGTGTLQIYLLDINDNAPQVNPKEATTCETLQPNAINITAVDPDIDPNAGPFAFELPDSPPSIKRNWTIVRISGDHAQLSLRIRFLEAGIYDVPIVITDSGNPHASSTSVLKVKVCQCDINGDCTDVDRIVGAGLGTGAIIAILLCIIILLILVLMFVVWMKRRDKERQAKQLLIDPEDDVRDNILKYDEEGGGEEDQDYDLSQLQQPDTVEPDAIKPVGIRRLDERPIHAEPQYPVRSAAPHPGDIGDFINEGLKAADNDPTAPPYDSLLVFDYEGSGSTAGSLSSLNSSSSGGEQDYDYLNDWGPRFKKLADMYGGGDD
Assay: cell-based or functional assay
Positions of bridges follow the written chain, without caps; N, C: chain ends.
READOUT: EC50 for inhibition of neurite outgrowth (µM)
Answers are plain numbers, in µM.

INSERT INTO assay_data (binder, readout, quantitative_result) VALUES
  ('Ac-CHAVDC-NH2 (disulfide 1-6 (inferred)) [N-Ac-CHAVDC-NH2]', 'EC50 for inhibition of neurite outgrowth', 93),
  ('Ac-CHAVYC-NH2 (disulfide 1-6 (inferred)) [N-Ac-CHAVYC-NH2]', 'EC50 for inhibition of neurite outgrowth', 128),
  ('Ac-CHAVDINC-NH2 (disulfide 1-8 (inferred)) [N-Ac-CHAVDINC-NH2]', 'EC50 for inhibition of neurite outgrowth', 70),
  ('Ac-CHAVPC-NH2 (disulfide 1-6 (inferred)) [N-Ac-CHAVPC-NH2]', 'EC50 for inhibition of neurite outgrowth', 185);

From here, focus on the item given below.
Ask | Quick check: EC50 for inhibition of neurite outgrowth of Ac-CHAVDIC-NH2 (disulfide 1-7 (inferred)) [N-Ac-CHAVDIC-NH2] ?
Reply | 60
